I'd be grateful if you could share measured koff for these entries.
# assaySystem: T1, biotinylated recombinant human IL-12Rβ2 (human, UniProt Q99665 24-622, random biotinylated)
# T1 construct: Recombinant protein produced in-house; also called hIL-12RB2; human IL-12RB2
# T1 sequence: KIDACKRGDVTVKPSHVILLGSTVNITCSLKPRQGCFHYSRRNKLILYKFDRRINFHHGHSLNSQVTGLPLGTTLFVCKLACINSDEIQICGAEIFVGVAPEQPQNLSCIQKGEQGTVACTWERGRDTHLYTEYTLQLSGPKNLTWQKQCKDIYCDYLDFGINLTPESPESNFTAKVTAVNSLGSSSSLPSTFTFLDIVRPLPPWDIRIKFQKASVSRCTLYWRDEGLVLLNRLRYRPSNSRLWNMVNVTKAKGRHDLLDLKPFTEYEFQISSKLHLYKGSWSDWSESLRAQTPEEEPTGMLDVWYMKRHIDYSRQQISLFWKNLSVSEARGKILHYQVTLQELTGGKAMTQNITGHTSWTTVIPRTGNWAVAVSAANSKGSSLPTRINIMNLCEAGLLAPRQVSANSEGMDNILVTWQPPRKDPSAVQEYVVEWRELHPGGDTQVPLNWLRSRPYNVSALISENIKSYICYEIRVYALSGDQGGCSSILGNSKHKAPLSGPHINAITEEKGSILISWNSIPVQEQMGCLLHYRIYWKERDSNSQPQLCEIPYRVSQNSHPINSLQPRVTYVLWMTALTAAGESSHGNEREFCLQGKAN
# runDescription: BLI, P.E., off-rate ranking
Numbers only, in s⁻¹.

# binder, unitAbbreviation, koff
rows = [
    ("anti-IL-12Rβ2 VHH clone 3CRHS54 (clone ID 20422) (VHH, not shown: small tags and cut ends, periplasmic extract) VHH: QVQLQESGGGLVQPGGSLRLSCTASGSIVSIYNMDWYRQAPGNEREWVASITSSGDPYYDGSAKGRFTISRDNAKMTVYLQMNSLEPEDTAVYFCKVPTEKGNYWGQGTQVTVSS", "s⁻¹", 0.00272),
    ("anti-IL-12Rβ2 VHH clone 3CRH45 (clone ID 20383) (VHH, not shown: small tags and cut ends, periplasmic extract) VHH: QVQLQESGGGLVQPGGSLRLSCAASGFTFSTFGMHWFRQAPGKGLEWVSSIGIIDDNSYYASSVKGRFTISRDNAKNTLYLQMNSLKSEDTAVYYCSKDTTGSSRGQGTQVTVSS", "s⁻¹", 0.00361),
    ("anti-IL-12Rβ2 VHH clone 2CRH33 (clone ID 20363) (VHH, not shown: small tags and cut ends, periplasmic extract) VHH: QVQLQESGGGSVQPGWSLRLTCAASGFTFSTSGMHWFRQAPGKGLEWVSSISSGGGDTYYTDSVKGRITISRDNAKNTLYLQLNDLKSEDTAVYYCSKDPSGATRGQGTQVTVSS", "s⁻¹", 0.00491),
]

Now examine the next entry.
Q: Quote koff reported for anti-IL-12Rβ2 VHH clone 3CRH64 (clone ID 20386) (VHH, not shown: small tags and cut ends, periplasmic extract) VHH: QVQLQESGGGLVQAGGSLRLSCTASGHTFSRYTTIGWFRQAPGKDREFVAAIRWSGDITDYADAVKGRFTISRDNVKNTVYLQTNSLNPEDTAVYYCARGYSEYGVLSRNRGLYAYWGQGTQVTVSS please.
Result: 0.00428
